Where do these numbers come from? They come from patent US4417052A.

System: carrageenin-induced foot edema
Test: inhibition of carrageenin-induced foot edema test (C.E.)
Type: in vivo
Conditions: oral, dose 0.08 millimoles/kg; read-out: C.E. percent inhibition
For each record, write down the corresponding inhibition in vivo at 80 µmol/kg.

Briefly, inhibition in vivo at 80 µmol/kg measured for OC(c1ccccc1)c1cccc(CCN2CCCCC2CC2CCCCC2)c1 (centres unmarked) [Example 1A] : 51%

Briefly, inhibition in vivo at 80 µmol/kg measured for C=C(c1ccccc1)c1cccc(C(C)CN2CCCCC2CC2CCCCC2)c1 (centres unmarked) [Example 17] : 47%

Briefly, inhibition in vivo at 80 µmol/kg measured for CC(CN1CCCC1CC1CCCCC1)c1cccc(C(O)c2ccccc2)c1 (centres unmarked) [Example 3B] : 19%

Briefly, inhibition in vivo at 80 µmol/kg measured for CC(CN1CCCCC1CC1CCCCC1)c1cccc(C(C)c2ccccc2)c1 (centres unmarked) [Example 11] : 29%

Briefly, inhibition in vivo at 80 µmol/kg measured for CC(CN1CCCCC1CC1CCCCC1)c1cccc(C(C)(O)c2ccccc2)c1 (centres unmarked) [Example 6] : 28%

Briefly, inhibition in vivo at 80 µmol/kg measured for CC(CN1CCCCC1CC1CCCCC1)c1cccc(C(O)c2c(Cl)cccc2Cl)c1 (centres unmarked) [Example 5A] : 58%

Briefly, inhibition in vivo at 80 µmol/kg measured for CC(CN1C(C)CCCC1C)c1cccc(C(=O)c2ccccc2)c1 (centres unmarked) [Example 13] : 54%

Briefly, inhibition in vivo at 80 µmol/kg measured for CC1CN(CC(C)c2cccc(C(=O)c3ccccc3)c2)CC(C)O1 (centres unmarked) [Example 7J] : 62%
